TARGET_SYSTEM: T1, hDcn1^P (potentiating neddylation / PONY domain of human Dcn1, DCUN1D1) (Homo sapiens, UniProt Q96GG9 62-259)
T1 construct: also called DCUN1D1^P; SCCRO PONY domain
T1 sequence (Q96GG9 62-259): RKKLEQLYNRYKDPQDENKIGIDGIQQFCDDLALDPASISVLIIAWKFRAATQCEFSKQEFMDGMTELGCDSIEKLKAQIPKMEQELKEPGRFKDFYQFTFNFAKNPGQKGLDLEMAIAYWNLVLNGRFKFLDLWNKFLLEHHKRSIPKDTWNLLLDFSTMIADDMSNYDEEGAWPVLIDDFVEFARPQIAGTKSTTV
ASSAY_NAME: ITC, peptide titrated into Dcn PONY domain
Starred links: 1 amine or outer side, 2 acyl side, 3 side chain; linkers in the order of their positions; H or OH if unused. Positions of bridges follow the written chain, without caps; N, C: chain ends. Non-standard residues stand in square brackets, D forms with d. αMeNva(5-ylidene) = C[C@@](CCC=[*:3])(N[*:1])C(=O)[*:2]; S8 = C=CCCCCCC[C@](C)(N)C(=O)O; SeMet = C[Se]CC[C@H](N)C(=O)O; S5 = C=CCCC[C@](C)(N)C(=O)O; Nle = CCCC[C@H](N)C(=O)O
PROPERTY_LABEL: pKd
// pKd is dimensionless: -log10 of concentration (M)

Below are worked cases with known answers.
Ac-MIKLKSLKEQKK-NH2 (bridge 5-9; also: K5-E9 staple, chemistry not given here, Stapled synthetic peptide) [hUbc12^Ac1-12 (Met) KE 5, 9] : 5.97
XIKLFSLKQQKK (N-terminal acetyl; norleucine at position 1 in place of Met; C-terminal amide, Synthetic peptide) [hUbc12^Ac1-12 (NorLeu)] : 5.25
Ac-MIKLF[S8]LKQ[αMeNva(5-ylidene)]KK-NH2 (staple 6-10, Stapled synthetic peptide; by the label the octenyl- and butenyl-alanine residues stand in the reverse order of the But:Oct peptide) [hUbc12^Ac1-12 (Met) Oct:But 6, 10] : 6.89
Ac-MIK(Ac)LFSLKQQKKEEESAGGTKGSSKK-NH2 (Synthetic peptide) [hUbc12^Ac1-Ac3-26] : 5.34
Ac-MIKL[S5]SLK[S5]QKK-NH2 (staple 5-9, also called Acetyl-hUbc12^1-12(5:9Staple)) [hUbc12^Ac1-12 (Met) 5, 9] : 6.82
Ac-[Nle]LKL[S5]QLQ[S5]KKQ-NH2 (staple 5-9; SMILES CCCC[C@H](NC(C)=O)C(=O)N[C@@H](CC(C)C)C(=O)N[C@@H](CCCCN)C(=O)N[C@@H](CC(C)C)C(=O)N[C@@]1(C)CCCC=CCCC[C@@](C)(C(=O)N[C@@H](CCCCN)C(=O)N[C@@H](CCCCN)C(=O)N[C@@H](CCC(N)=O)C(N)=O)NC(=O)[C@H](CCC(N)=O)NC(=O)[C@H](CC(C)C)NC(=O)[C@H](CCC(N)=O)NC1=O, Stapled synthetic peptide) [yUbc12^Ac1-12 (NorLeu) 5, 9] : 6.38
Ac-MIKLFSLKQQKKEEESAGGTKGSSKK-NH2 (Synthetic peptide of the N-terminus of human Ubc12; also called Acetyl-hUbc12^1-26) [hUbc12^Ac1-26] : 5.82
Ac-[SeMet]IKL[S5]SLK[S5]QKK-NH2 (staple 5-9, Stapled synthetic peptide) [hUbc12^Ac1-12 (SeMet) 5, 9] : 6.74

// next entry
Query: Look up pKd: Ac-MIKLF[αMeNva(5-ylidene)]LKQ[S8]KK-NH2 (staple 6-10) [hUbc12^Ac1-12 (Met) But:Oct 6, 10]
Result: 6.92
